# experimental.target: Virion infectivity factor (Human immunodeficiency virus type 1 group M subtype B (isolate BH10)) + Virion infectivity factor (Human immunodeficiency virus type 1 group M subtype B (isolate BRU/LAI)) + Virion infectivity factor (Human immunodeficiency virus type 1 group M subtype B (isolate PCV12)) + Virion infectivity factor (Human immunodeficiency virus type 1 group M subtype B (isolate HXB2)) + DNA dC->dU-editing enzyme APOBEC-3G (Homo sapiens) (UniProt P69720+P69721+P69722+P69723+Q9HC16)
# method.description: inhibitors of Vif binding to APOBEC3G peptide, primary screen, biochemical, TR-FRET, GST-Vif 1-94, biotin-A3G peptide, dose response retest (AID 1117319);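 note: Vif residues 1-94 fused to GST binding biotinylated APOBEC3G peptide 110-148; 0% = full assay without inhibitor and 100% = GST in place of GST-Vif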
# measurement.setup: hits give high values
Screen size: about 260,000 compounds; about 1,500 (0.58%) were called active. Not shown: some 5% with an inconclusive outcome. Not all results are given here. Measured potencies and affinities stand elsewhere.
Can you tell me inhibition for the items I'm about to list?
Give bare numbers, in %.

Some compounds with known inhibition results, for comparison:
IN: What measured inhibition goes with CC(C)(C)c1c(Cl)c(O)c(-c2ccccc2)c(=O)n1-c1ccccc1 ?
OUT: 11.4

IN: Could you do the same for Cc1ccc(CCNC(=O)C2CC(c3ccccc3C(F)(F)F)=NO2)cc1 (configuration not stated) , please?
OUT: -3.19

IN: Could you do the same for CCc1cccc(C)c1NC(=O)Nc1c(Br)cnn1C , please?
OUT: -8.57

IN: Could you do the same for CC(=O)c1ccc(N2CCN(C(=O)c3ccc(OCc4c(C)noc4C)cc3)CC2)cc1 , please?
OUT: -23.2

IN: Could you do the same for CCC(=O)NCC(c1ccco1)N1CCN(c2ccc(OC)cc2)CC1 (configuration not stated) , please?
OUT: 2.46

Provide reported inhibition for each item, in the same order as listed.
1. Cc1ccc(NC(=O)CN2C(=O)NC(C)(c3ccc(Cl)cc3)C2=O)cc1S(=O)(=O)N1CCOCC1 (configuration not stated)
2. CCN(Cc1ccccc1)C(=O)c1cc(S(=O)(=O)N2CCOCC2)ccc1N1CCCC1
3. CCCCC1=CC2=CC(=O)C(C)(OC(=O)CC)C(=O)C2=CN1Cc1ccccc1 (configuration not stated)
4. CS(=O)(=O)N(CCC#N)Cc1ccc(C=O)o1
5. CCN(CC)c1cc(NCCO)c([N+](=O)[O-])c2nonc12
6. Nc1ccccc1SCc1ccccc1

OUT:
1: 19.2; 2: 3.77; 3: 25; 4: -8.77; 5: 0.97; 6: -5.9

----------
# experimental.target: Virion infectivity factor (Human immunodeficiency virus type 1 group M subtype B (isolate BH10)) + Virion infectivity factor (Human immunodeficiency virus type 1 group M subtype B (isolate BRU/LAI)) + Virion infectivity factor (Human immunodeficiency virus type 1 group M subtype B (isolate PCV12)) + Virion infectivity factor (Human immunodeficiency virus type 1 group M subtype B (isolate HXB2)) + DNA dC->dU-editing enzyme APOBEC-3G (Homo sapiens) (UniProt P69720+P69721+P69722+P69723+Q9HC16)
# method.description: inhibitors of Vif binding to APOBEC3G peptide, primary screen, biochemical, TR-FRET, GST-Vif 1-94, biotin-A3G peptide, dose response retest (AID 1117319);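 note: Vif residues 1-94 fused to GST binding biotinylated APOBEC3G peptide 110-148; 0% = full assay without inhibitor and 100% = GST in place of GST-Vif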
# measurement.setup: hits give high values
Out of some 260,000 compounds screened, about 1,500 (0.58%) were called active. Not shown: some 5% with an inconclusive outcome. The list is a sample of the results. Results with a measured potency or affinity are listed apart.
Can you tell me inhibition for the items I'm about to list?
Give bare numbers, in %.

Some compounds with known inhibition results, for comparison:
IN: What measured inhibition goes with O=[N+]([O-])c1ccc(Cl)c(S(=O)(=O)NC2=NCCC2)c1 ?
OUT: -7.04

IN: Could you do the same for NNc1nc(C(F)(F)F)nc2ccccc12 , please?
OUT: -3.12

IN: Could you do the same for C/C(O)=c1/ccc2cccc3nc(C)nc1c23 , please?
OUT: 32.6

Provide reported inhibition for each item, in the same order as listed.
1. Cc1ccc(-c2nnc(SCC(=O)NNC(=O)COc3cccc(C)c3)n2C)cc1
2. Oc1ccccc1C=NCC(O)c1ccccc1 (stereo unspecified)
3. COc1ccc(Nc2nc(C)cc(=O)[nH]2)c(OC)c1

OUT:
1. -3.33
2. 22
3. 10.4

----------
Can you tell me inhibition for the items I'm about to list?
# experimental.target: Virion infectivity factor (Human immunodeficiency virus type 1 group M subtype B (isolate BH10)) + Virion infectivity factor (Human immunodeficiency virus type 1 group M subtype B (isolate BRU/LAI)) + Virion infectivity factor (Human immunodeficiency virus type 1 group M subtype B (isolate PCV12)) + Virion infectivity factor (Human immunodeficiency virus type 1 group M subtype B (isolate HXB2)) + DNA dC->dU-editing enzyme APOBEC-3G (Homo sapiens) (UniProt P69720+P69721+P69722+P69723+Q9HC16)
# method.description: inhibitors of Vif binding to APOBEC3G peptide, primary screen, biochemical, TR-FRET, GST-Vif 1-94, biotin-A3G peptide, dose response retest (AID 1117319);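 note: Vif residues 1-94 fused to GST binding biotinylated APOBEC3G peptide 110-148; 0% = full assay without inhibitor and 100% = GST in place of GST-Vif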
# measurement.setup: hits give high values
Hit rate of the full screen: of about 260,000 compounds, about 1,500 (0.58%) were called active. Another 5% or so got no clear call; they are omitted. The list is a sample of the results. Measured potencies and affinities stand elsewhere.
One number for each entry, in %.

Some molecules with known inhibition results, for comparison:
IN: What measured inhibition goes with C=CCCCN(Cc1ccccc1)S(=O)(=O)c1ccccc1Br ?
OUT: -1.22

IN: Could you do the same for CC1(C)NC(=O)N(CNc2cc(Cl)ccc2Cl)C1=O , please?
OUT: 20.3

IN: Could you do the same for O=C(Nc1nnc(CCc2ccccc2)s1)c1ccco1 , please?
OUT: -2.33

IN: Could you do the same for Cc1cc(NC(=O)CSc2nnc(C)n2-c2ccccc2)no1 , please?
OUT: 1.46

IN: Could you do the same for COc1ccc(C(=O)N/N=C/c2ccc(SC)cc2)cc1 , please?
OUT: -0.44

Others:
IN: What measured inhibition goes with CC1CC(=O)Nc2ccccc2N1C(=O)CN1C(=O)C(=O)N(C)C1=O (stereo unspecified) ?
OUT: 3.84

----------
# experimental.target: Virion infectivity factor (Human immunodeficiency virus type 1 group M subtype B (isolate BH10)) + Virion infectivity factor (Human immunodeficiency virus type 1 group M subtype B (isolate BRU/LAI)) + Virion infectivity factor (Human immunodeficiency virus type 1 group M subtype B (isolate PCV12)) + Virion infectivity factor (Human immunodeficiency virus type 1 group M subtype B (isolate HXB2)) + DNA dC->dU-editing enzyme APOBEC-3G (Homo sapiens) (UniProt P69720+P69721+P69722+P69723+Q9HC16)
# method.description: inhibitors of Vif binding to APOBEC3G peptide, primary screen, biochemical, TR-FRET, GST-Vif 1-94, biotin-A3G peptide, dose response retest (AID 1117319);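 note: Vif residues 1-94 fused to GST binding biotinylated APOBEC3G peptide 110-148; 0% = full assay without inhibitor and 100% = GST in place of GST-Vif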
# measurement.setup: hits give high values
Screen size: about 260,000 compounds; about 1,500 (0.58%) were called active. About 5% were inconclusive and are not listed. The list is a sample of the results. Results with a measured potency or affinity are listed apart.
measured.parameter: inhibition (%)
One number for each entry, in %.

Some compounds with known inhibition results, for comparison:
IN: What measured inhibition goes with COc1ccc(N(CC(=O)NCCSCc2ccco2)S(=O)(=O)c2ccc(C)cc2)cc1 ?
OUT: -1.79

IN: Could you do the same for O=C(/C=C/c1ccco1)NC(=S)Nc1cc(C(F)(F)F)ccc1N1CCOCC1 , please?
OUT: 31.6

IN: Could you do the same for O=C(CSC(=S)N1CCOCC1)Nc1ncc2c(n1)CCCC2=O , please?
OUT: 1.41

IN: Could you do the same for O=C(Nc1nc2c(ccc3ccccc32)s1)c1cc([N+](=O)[O-])ccc1N1CCOCC1 , please?
OUT: -2.48

IN: Could you do the same for Cc1cc(-c2nnc(CCC(=O)N(CC3CC3)CC3CCCO3)o2)no1 (stereo not given) , please?
OUT: 0.72

IN: Could you do the same for CC(C)C(=O)N1CCN(c2ccccc2NC(=S)NC(=O)/C=C/c2ccco2)CC1 , please?
OUT: 4.53

IN: Could you do the same for Cc1ccc(C(=O)OCC(=O)NCc2ccccc2)cc1S(=O)(=O)N1CCCCC1 , please?
OUT: -8.21

IN: Could you do the same for C=CCn1c(COc2ccc(F)cc2)nnc1SCC(=O)N1CC(=O)Nc2ccccc21 , please?
OUT: 3.87

Provide reported inhibition for each item, in the same order as listed.
1. COc1ccc(-n2ccc(=O)c3c2CCCC3=O)cc1
2. COc1ccc(Cl)cc1C(=O)NNC(=O)CSc1nnc2ccccn12

OUT:
1. 9
2. -2.97

Provide reported inhibition for each item, in the same order as listed.
1. CN(CCC#N)C(=O)COC(=O)c1ccccc1OCc1ccccc1Cl
2. Nc1nnc(-c2ccco2)s1
3. CC1CCC2(CC1)NC(=O)N(CC(=O)NCc1cccs1)C2=O (stereo not given)
4. COCCn1c(SCC(=O)Nc2sccc2C(N)=O)nnc1-c1ccncc1
5. CCC1=NN2C(=N)/C(=C\c3ccc(OCCOc4ccc(NC(C)=O)cc4)c(OC)c3)C(=O)N=C2S1
6. Clc1ccc(Oc2nc(N3CCOCC3)nc(N3CCOCC3)n2)c(C2CCCCC2)c1

OUT:
1: 23.6; 2: 15.6; 3: -3.91; 4: -0.42; 5: -0.34; 6: -3.78

Reference source: PubChem BioAssay AID1117319
